- ASSAY SYSTEM: T1, human CD40 expressed on the cell surface (human, UniProt P25942 21-277)
- T1 construct: whole, on cells; Used for transfected CHO-K cells, for transfected Jurkat reporter cells (Met1-Gln277) and for the natural CD40 on Ramos cells and iDC; also called CHO-K-huCD40 cells; CHO cells expressing CD40
- T1 sequence (P25942 21-277): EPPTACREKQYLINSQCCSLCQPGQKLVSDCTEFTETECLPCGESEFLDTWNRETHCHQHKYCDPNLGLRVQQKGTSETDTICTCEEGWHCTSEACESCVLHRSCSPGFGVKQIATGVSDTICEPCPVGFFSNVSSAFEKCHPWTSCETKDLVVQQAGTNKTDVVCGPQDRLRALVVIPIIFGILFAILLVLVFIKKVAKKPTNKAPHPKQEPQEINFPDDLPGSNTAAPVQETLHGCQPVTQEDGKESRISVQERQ
- PROCEDURE TEXT: flow cytometry on CHO-K-huCD40 cells, APC anti-human IgG secondary antibody
EXPERIMENTAL ENDPOINT: EC50 (read off the curve)

## Task Entry C8-9 antibody (antibody, V domains shown) VH: EVQLLESGGGLVRPGGSLRLSCAASGFTFGSYEMNWVRQAPGKGLEWVSYISSSGETTDYADSVKGRFTVSRDNSKNLLYLQMNSLRAEDTAVYYCARDVFFFDSSRPNGAYGMDVWGQGTMVTVSS VL: DIQLTQSPSSLTASVGDRVTITCRSSQGIRSSLAWYQQKPGKPPKLLIYGASSLEGGVPSRFSGSGSGTDFTLTISSLQPEDFATYYCQQLNSFPSTFGQGTKLEIK has what EC50 (read off the curve)?
## Result ~0.9 µg/mL

The reported numbers originate from patent US20240218071A1.
